All figures here come from ChEMBL document CHEMBL5390262.

# System: HaCaT
# ASSAY_SUMMARY: Induction of human HaCaT cells differentiation assessed as increase in formation of compact epithelioid islands at 0.1 microM incubated for 48 hrs by phase-contrast microscopy
# Assay type: functional, cell-based
Activity calls are given as the source filed them. No cut-off for these calls is given here.
MEASURED_METRIC: Activity

C=C1/C(=C\C=C(/C)c2cccc(CCC#CCC(O)(C(F)(F)F)C(F)(F)F)c2)C[C@@H](O)C[C@@H]1O	Active
C=C1/C(=C\C=C2/CCC[C@]3(C)[C@@H]([C@H](C)CCCC(C)(C)O)CC[C@@H]23)C[C@@H](O)C[C@@H]1O	Active
C=C1/C(=C\C=C(/CC)c2cccc(CCC#CCC(C)(C)O)c2)C[C@@H](O)C[C@@H]1O	Active
C=C1/C(=C\C=C(/CC)c2cccc(CCCCCC(O)(C(F)(F)F)C(F)(F)F)c2)C[C@@H](O)C[C@@H]1O	Active
C=C1/C(=C\C=C(/CC)c2cccc(CCC#CCC(O)(C(F)(F)F)C(F)(F)F)c2)C[C@@H](O)C[C@@H]1O	Active
